# System: normal primary NK cells, pool 1 (3 donors) (IL-2 2.5 ng/mL)
# Assay Protocol: percent inhibition of viability; higher = more inhibition;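 also: normalised to DMSO-only wells as negative and benzethonium chloride as positive control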
# Experimental Conditions: 72 h; 100 nM
Measured Quantity: percent inhibition of viability (%)
Numbers only, in %.

Observe how each entry below is paired with its result.
Compound: Nc1cc(C(F)(F)F)c(-c2cc(N3CCOCC3)nc(N3CCOCC3)n2)cn1 [Buparlisib] (max concentration tested 10000 nM)
Readout Number: -2.5
//
Compound: C[C@]1(O)C[C@@H](c2nc(-c3ccc4ccc(-c5ccccc5)nc4c3)c3c(N)nccn32)C1 [Linsitinib] (max concentration tested 10000 nM)
Readout Number: -7.82
//
Compound: N#CC[C@H](C1CCCC1)n1cc(-c2ncnc3[nH]ccc23)cn1 [Ruxolitinib] (max concentration tested 10000 nM)
Readout Number: 49.3
//
Compound: O=C(Cc1ccc(-c2ccc(OCCN3CCOCC3)cc2)cn1)NCc1ccccc1 [KX2-391] (max concentration tested 10000 nM)
Readout Number: 1.64
//
Compound: CNC(=O)c1ccc(-c2cnc3ncc(Cc4ccc5ncccc5c4)n3n2)cc1F [NVP-INC280] (max concentration tested 1000 nM)
Readout Number: -8.05
//
Compound: CC(C)(C)c1cc(NC(=O)Nc2ccc(-c3cn4c(n3)sc3cc(OCCN5CCOCC5)ccc34)cc2)no1 [Quizartinib] (max concentration tested 1000 nM)
Readout Number: 6.54
//
Compound: NC(=O)N1CCC(CC(=O)N2CCC([C@H]3c4ncc(Br)cc4CCc4cc(Cl)cc(Br)c43)CC2)CC1 [Lonafarnib] (max concentration tested 10000 nM)
Readout Number: 6.08
//
Compound: COc1cc2c(NC3CCN(C(C)C)CC3)nc(N3CCC(F)(F)CC3)nc2cc1OCCCN1CCCC1 [UNC0642] (max concentration tested 10000 nM)
Readout Number: 19.9
//
Compound: Nc1ncn([C@H]2C[C@H](O)[C@@H](CO)O2)c(=O)n1 [Decitabine] (max concentration tested 10000 nM)
Readout Number: -2.22
//
Compound: C#Cc1cccc(Nc2ncnc3cc(OC)c(OCCCCCCC(=O)NO)cc23)c1 [CUDC-101] (max concentration tested 10000 nM)
Readout Number: 12.8

// for each compound in input: emit percent inhibition of viability
1. FC(F)c1nc2ccccc2n1-c1nc(N2CCOCC2)nc(N2CCOCC2)n1 [ZSTK474] (max concentration tested 10000 nM)
2. CN1CCC(CNc2ccc3ncc(-c4cccc(OC(F)(F)F)c4)n3n2)CC1 [SGI-1776] (max concentration tested 10000 nM)

Reply:
20.4
0.28

----------
So I've got a bunch of compounds here, and I need their percent inhibition of viability values.
# System: KHYG-1 (IL-2 2.5 ng/mL)
# Assay Protocol: percent inhibition of viability; higher = more inhibition
# Experimental Conditions: 72 h; 1 nM
Give bare numbers, in %.

Compound: CNC(=O)c1cccc(-c2ccc3c(N4CCOC[C@@H]4C)nc(N4CCOC[C@@H]4C)nc3n2)c1 [AZD2014] (max concentration tested 10000 nM)
Result Units: %
Readout Number: 8.26

Compound: C=C1C[C@@H]2[C@H](CC[C@]3(C)C(=O)CC[C@@H]23)[C@@]2(C)C=CC(=O)C=C12 [Exemestane] (max concentration tested 10000 nM)
Result Units: %
Readout Number: -6.37

Then this compound:
Ask: What value of percent inhibition of viability has been recorded for this entry: O=C(Nc1cccc(Nc2ncc(Br)c(NCCc3cnc[nH]3)n2)c1)N1CCCC1 [BX-912] (max concentration tested 10000 nM)
Reply: 2.7
